EXPERIMENTAL_TARGET: Histone-lysine N-methyltransferase EZH2 (Homo sapiens) (UniProt Q15910)
Sequence (Q15910 whole entry, looked up): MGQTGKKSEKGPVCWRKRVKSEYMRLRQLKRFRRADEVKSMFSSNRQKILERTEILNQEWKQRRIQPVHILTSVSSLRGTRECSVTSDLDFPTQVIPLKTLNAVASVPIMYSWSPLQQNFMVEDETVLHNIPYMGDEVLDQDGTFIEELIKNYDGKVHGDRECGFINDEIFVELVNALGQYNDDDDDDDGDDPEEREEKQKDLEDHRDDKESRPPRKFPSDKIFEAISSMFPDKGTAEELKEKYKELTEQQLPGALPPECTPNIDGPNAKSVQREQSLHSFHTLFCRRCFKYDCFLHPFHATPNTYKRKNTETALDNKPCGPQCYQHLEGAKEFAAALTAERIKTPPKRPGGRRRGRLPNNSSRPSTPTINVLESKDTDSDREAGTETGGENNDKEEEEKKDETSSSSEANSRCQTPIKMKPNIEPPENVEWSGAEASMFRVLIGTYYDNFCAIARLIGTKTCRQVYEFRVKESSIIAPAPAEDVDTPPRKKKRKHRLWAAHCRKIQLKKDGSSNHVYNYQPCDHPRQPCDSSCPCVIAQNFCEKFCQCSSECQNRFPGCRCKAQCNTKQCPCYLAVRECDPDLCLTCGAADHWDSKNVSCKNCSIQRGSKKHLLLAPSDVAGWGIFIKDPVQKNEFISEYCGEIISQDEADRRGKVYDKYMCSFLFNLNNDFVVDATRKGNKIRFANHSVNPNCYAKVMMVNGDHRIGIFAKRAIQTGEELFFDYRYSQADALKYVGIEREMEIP
METHOD_NOTES: inhibition of PRC2 H3K27 methylation – biochemical, DELFIA time-resolved fluorescence, single point, primary screen (AID 651548);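 further: dimethyl H3K27 on biotinylated H3 21-44 peptide detected by antibody; plate controls were median neutral control wells for no effect and median positive control wells for full effect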
RUN_CONDITIONS: DELFIA TRF, 1 h, at 12.5 µM
In all, about 57,000 compounds went through this assay and about 200 (0.35%) were called active.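 How the source made its calls: active means mean inhibition of replicates at least 50% and every single replicate also reaching 50%; inconclusive means mean inhibition at least 50% but some replicate falls below 50%; inactive means mean inhibition under 50%.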 This excerpt belongs to a sample that is enriched for actives.
Possible outcomes: label 1 (active), label 0 (inactive)

[
  {
    "MOLECULE": "O=C(C[C@@H]1C[C@@H]2c3cc(NC(=O)c4ccc5c(c4)OCO5)ccc3O[C@@H]2[C@H](CO)O1)NCC1CC1",
    "CLASSIFICATION": "label 0"
  },
  {
    "MOLECULE": "CO[C@@H]1CN(C)C(=O)c2ccc(NC(=O)C3CC3)cc2OC[C@@H](C)N(Cc2ccncc2)C[C@@H]1C",
    "CLASSIFICATION": "label 0"
  },
  {
    "MOLECULE": "CCCN1C[C@H](C)[C@@H](OC)CN(C)C(=O)c2ccc(NC(=O)C3CCOCC3)cc2OC[C@H]1C",
    "CLASSIFICATION": "label 0"
  },
  {
    "MOLECULE": "COc1ccccc1-c1cn(CC[C@H]2CC[C@@H](NC(=O)Cc3ccccn3)[C@@H](CO)O2)nn1",
    "CLASSIFICATION": "label 0"
  },
  {
    "MOLECULE": "CCC(=O)Nc1ccc2c(c1)C(=O)N(C)C[C@H](OC)[C@@H](C)CN(Cc1cccnc1)[C@H](C)CO2",
    "CLASSIFICATION": "label 0"
  },
  {
    "MOLECULE": "C[C@H](CO)N1C[C@H](C)[C@@H](CN(C)C(=O)c2ccccc2)OCCCC[C@H](C)Oc2ccc(NC(=O)c3ccccc3)cc2C1=O",
    "CLASSIFICATION": "label 0"
  },
  {
    "MOLECULE": "C/C=C1/[C@H](O[C@@H]2O[C@H](CO)[C@@H](O)[C@H](O)[C@H]2O)OC=C2C(=O)O[C@@H]3C[C@@H](C(C)CO)[C@H](COC(=O)C[C@H]21)[C@H]3C (stereo partly specified)",
    "CLASSIFICATION": "label 0"
  },
  {
    "MOLECULE": "O=C(CCCCCCC(=O)Nc1ccccc1O)N/N=C/c1ccc(Oc2ccccc2)cc1",
    "CLASSIFICATION": "label 1"
  },
  {
    "MOLECULE": "C[C@@H]1CN([C@@H](C)CO)C(=O)c2c(c3ccccc3n2C)-c2ccccc2CO[C@H]1CN(C)C(=O)N[C@H](C)c1ccccc1",
    "CLASSIFICATION": "label 0"
  },
  {
    "MOLECULE": "C[C@@H]1CN([C@@H](C)CO)C(=O)c2cc(C3=CCCC3)cnc2O[C@H]1CN(C)C(=O)c1ccccn1",
    "CLASSIFICATION": "label 0"
  },
  {
    "MOLECULE": "CCC(=O)Nc1ccc2c(c1)C(=O)N(C)C[C@H](OC)[C@@H](C)CN(C(=O)c1cnccn1)[C@@H](C)CO2",
    "CLASSIFICATION": "label 0"
  },
  {
    "MOLECULE": "O=C(CCCCCC(=O)Nc1ccccc1O)N/N=C/c1ccc(I)cc1",
    "CLASSIFICATION": "label 0"
  },
  {
    "MOLECULE": "CCC(=O)N1C[C@@H](C)[C@H](OC)CN(C)C(=O)c2ccc(NC(=O)COC)cc2OC[C@@H]1C",
    "CLASSIFICATION": "label 0"
  },
  {
    "MOLECULE": "O=C(C[C@H]1C[C@H]2c3cc(NC(=O)CC4CC4)ccc3O[C@H]2[C@H](CO)O1)NCc1ccccc1",
    "CLASSIFICATION": "label 0"
  },
  {
    "MOLECULE": "COCC(=O)N(C)C[C@@H]1Oc2ncc(-c3ccccc3OC)cc2C(=O)N([C@@H](C)CO)C[C@@H]1C",
    "CLASSIFICATION": "label 0"
  },
  {
    "MOLECULE": "C[C@@H]1CN([C@@H](C)CO)S(=O)(=O)c2ccc(C#CCC3CCCC3)cc2O[C@@H]1CN(C)C",
    "CLASSIFICATION": "label 0"
  }
]

Data origin: PubChem BioAssay AID651548
